Each recorded value in this set is attributed to the supplement of paper PMC10037445.

# Tested on: RAW-Dual
# Measurement Description: NF-kB SEAP reporter activity, fold change vs agonist alone; higher = enhanced NF-kB activity
# Condition Set: library stock concentration (final ~1000-fold dilution): 10 mM; cytotoxicity flag (confluency mask): not cytotoxic; agonist: MPLA (TLR4) […]
Over roughly 2,900 compounds, “NF-kB SEAP reporter activity, fold change vs agonist alone” has its median near 0.99; the highest 2% begin near 2.6. What follows is part of a selection rich in the highest values, with near analogues and random picks from the rest.
Property: NF-kB SEAP reporter activity

1) CN(CC(=O)N(Cc1ccc(C2CCCCC2)cc1)c1ccc(C(=O)NO)cc1)S(=O)(=O)c1c(F)c(F)c(F)c(F)c1F | 1.02
2) Cn1cc(C2=C(c3ccc(Cl)cc3Cl)C(=O)NC2=O)c2ccccc21 | 1.99
3) CC1(C)OC2COC3(COS(N)(=O)=O)OC(C)(C)OC3C2O1 (stereo not given) | 0.824
4) C=C1CC23CCC4C(C)(C(=O)O)CCCC4(C)C2CCC1C3 (stereo not given) | 0.753
5) CN1C2=C3N=c4ccccc4=C3CCN2C(=O)c2ccccc21.Cl | 0.999
6) CC1OC(OC2C(Oc3cc(O)c(C(=O)CCc4ccc(O)cc4)c(O)c3)OC(CO)C(O)C2O)C(O)C(O)C1O (stereo not given) | 1.03
7) O=C(O)CSc1cc(NS(=O)(=O)c2ccc(Br)cc2)c2ccccc2c1O | 2.21
8) CC(C)(C)C(=O)N1N=CCC1c1ccccc1 (stereo not given) | 1.02
9) O=C(O)CSc1nnc(Br)n1-c1ccc(C2CC2)c2ccccc12 | 0.983
10) Cn1ncc(Cl)c1-c1cc(C(=O)NC(CN)Cc2ccc(F)c(F)c2)oc1Cl (stereo not given) | 1.61
